src = paper PMC7826789

- System: WNK3
- experimental context: Compound Concentration (nM):1000;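 further: KINOMEscan scanMAX binding as percent activity remaining versus control; lower means stronger binding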
Each entry below carries its reported Percent Control.
property measured: Percent Control

Nc1ncnc2occ(-c3ccc(NC(=O)Nc4cc(C(F)(F)F)ccc4F)cc3)c12 [GW770249X]    100%
NS(=O)(=O)c1ccc(N/N=C2\C(=O)Nc3ccc(-c4cnco4)cc32)cc1    56%
O=C(Nc1n[nH]c2nc(-c3ccc(O)cc3)c(Br)cc12)C1CC1    100%
NS(=O)(=O)c1ccc(N/N=C2\C(=O)Nc3ccc(Cl)cc32)cc1 [GW280670X]    100%
CN(C)c1cc2c(Nc3ccc4c(cnn4Cc4ccccc4)c3)ncnc2cn1 [GW282974X]    100%

###

- Test system: CSNK1A1
- experimental context: Compound Concentration (nM):1000
property measured: Percent Control

Cc1cc(O)cc(C)c1/C=C/c1cncc(C(N)=O)c1 [GW435821X]    100%
CN(C)CCNC(=O)Nc1ccc(N(C)c2ccnc(Nc3ccc(CS(C)(=O)=O)cc3)n2)cc1.Cl [GW830900A]    79%
COc1ccc2cc(-c3c(-c4ccncc4)nc(-c4ccc(S(C)(=O)=O)cc4C)n3C)ccc2c1 [SB-633825]    85%
COc1cc(/C=N/Nc2ncnc3[nH]ncc23)ccc1O [GW578748X]    61%
Cl.O=C(O[C@H]1CN[C@H](C#Cc2cc3ncnc(Nc4ccc5c(cnn5Cc5ccccc5)c4)c3s2)C1)N1CCOCC1 [GSK200398A]    89%
NS(=O)(=O)c1ccc(Nc2ncc(-c3ccccc3)o2)cc1 [GW572399X]    100%
COC(=O)Nc1nc2ccc(Oc3ccc(NC(=O)Nc4cc(C(F)(F)F)ccc4F)cc3)cc2s1.Cl [GW693917A]    83%
COc1cccc(-c2c[nH]c3c(N/N=C/c4ccncc4)ncnc23)c1 [GW814408X]    88%

###

List of Percent Control values.
- Test system: GRK4
- experimental context: Compound Concentration (nM):1000
property measured: Percent Control (%)

COc1ccc2cc(-c3c(-c4ccncc4)nc(-c4ccc(S(C)(=O)=O)cc4C)n3C)ccc2c1    100
COc1cccc(-c2c[nH]c3c(N/N=C/c4ccncc4)ncnc23)c1 [GW814408X]    62
CN(C)CCNC(=O)Nc1ccc(N(C)c2ccnc(Nc3ccc(CS(C)(=O)=O)cc3)n2)cc1.Cl [GW830900A]    7.1
CCS(=O)(=O)c1ccc(OC)c(Nc2ncc(-c3cccc(OC)c3)o2)c1 [GW580509X]    100
NS(=O)(=O)c1ccc(N/N=C2\C(=O)Nc3ccc(-c4cnco4)cc32)cc1    39
COC(=O)Nc1nc2ccc(Oc3ccc(NC(=O)Nc4cc(C(F)(F)F)ccc4F)cc3)cc2s1.Cl [GW693917A]    100
CN1CCN(C(=O)c2ccc(NC(=O)Nc3ccc(N(C)c4ccnc(Nc5ccc(CS(C)(=O)=O)cc5)n4)cc3)cc2)CC1.Cl [GW830263A]    4.5
COc1cc2ncnc(Nc3ccc4c(cnn4Cc4ccccc4)c3)c2cc1OC.Cl [GW282449A]    100

###

- Tested on: HIPK1
- experimental context: Compound Concentration (nM):1000
Recorded Percent Control, one value per entry.
property measured: Percent Control (%)

COc1cc(N2CCN(C(C)C)CC2)ccc1Nc1nc(Nc2ccc(F)cc2C(=O)NC[C@@H](O)CO)c2cc[nH]c2n1 [GSK1392956A]    15
Cc1cc(O)cc(C)c1/C=C/c1cncc(C(N)=O)c1 [GW435821X]    100
CN(C)c1cc2c(Nc3ccc4c(cnn4Cc4ccccc4)c3)ncnc2cn1 [GW282974X]    78
O=C(Nc1n[nH]c2nc(-c3ccc(O)cc3)c(Br)cc12)C1CC1    22
COc1ccc2c(-c3ccnc(Nc4cccc(OC(F)(F)F)c4)n3)cnn2n1 [GW810372X]    0.7
NS(=O)(=O)c1ccc(N/N=C2\C(=O)Nc3ccc(-c4cnco4)cc32)cc1    35
CCS(=O)(=O)c1ccc(OC)c(Nc2ncc(-c3cccc(F)c3)o2)c1 [GW621970X]    82
Nc1ncnc2occ(-c3ccc(NC(=O)Nc4cc(C(F)(F)F)ccc4F)cc3)c12 [GW770249X]    51

###

- System: ACVR2B
- experimental context: Compound Concentration (nM):1000
Listed molecules paired with reported Percent Control
property measured: Percent Control

Cl.O=C(Nc1ccc(Oc2ccc3[nH]c(NC(=O)c4ccco4)nc3c2)cc1)Nc1cc(C(F)(F)F)ccc1F [GW683134A]    100%
CC1=C(C(=O)Nc2ccc3[nH]ncc3c2)C(c2ccc3ccccc3c2)CC(=O)N1 (centres unmarked) [GSK270822A]    86%
NS(=O)(=O)c1ccc(N/N=C2\C(=O)Nc3ccc(Cl)cc32)cc1 [GW280670X]    100%
COc1ccc2[nH]c3c4[nH]c5ccc(OC)cc5c4c4c(c3c2c1)C(=O)NC4=O [GW296115X]    44%
Cl.O=C(Nc1ccc(Oc2ccc3[nH]c(NC(=O)c4ccccc4)nc3c2)cc1)Nc1cc(C(F)(F)F)ccc1F [GW709042A]    100%
Cl.O=C(O[C@H]1CN[C@H](C#Cc2cc3ncnc(Nc4ccc5c(cnn5Cc5ccccc5)c4)c3s2)C1)N1CCOCC1 [GSK200398A]    100%
CCS(=O)(=O)c1ccc(OC)c(Nc2ncc(-c3cccc(F)c3)o2)c1 [GW621970X]    100%
CN(C)CCNC(=O)Nc1ccc(N(C)c2ccnc(Nc3ccc(CS(C)(=O)=O)cc3)n2)cc1.Cl [GW830900A]    88%

###

- Tested on: FLT3(ITD,D835V)
- experimental context: Compound Concentration (nM):1000
property measured: Percent Control (%)

CCc1ccc(Oc2nccc(-c3c(-c4ccc(F)cc4)ncn3C3CCNCC3)n2)cc1 [SB-242719]    89
COc1ccc2cc(-c3c(-c4ccncc4)nc(-c4ccc(S(C)(=O)=O)cc4C)n3C)ccc2c1 [SB-633825]    80
COc1ccc2[nH]c3c4[nH]c5ccc(OC)cc5c4c4c(c3c2c1)C(=O)NC4=O [GW296115X]    0
Cl.O=C(Nc1ccc(Oc2ccc3[nH]c(NC(=O)c4ccccc4)nc3c2)cc1)Nc1cc(C(F)(F)F)ccc1F [GW709042A]    95

###

- Tested on: TTK
- experimental context: Compound Concentration (nM):1000
Percent Control of 20% or higher: Yes. Under 20%: No.

C/C(Nc1ccc(S(N)(=O)=O)cc1)=C1/C(=O)Nc2ccccc21 [GW335962X]    No
NS(=O)(=O)c1ccc(N/N=C2\C(=O)Nc3ccc(Cl)cc32)cc1 [GW280670X]    Yes
COc1ccc2c(-c3ccnc(Nc4cccc(OC(F)(F)F)c4)n3)cnn2n1 [GW810372X]    Yes
CN(C)c1cc2c(Nc3ccc4c(cnn4Cc4ccccc4)c3)ncnc2cn1 [GW282974X]    Yes
Cl.O=C(Nc1ccc(Oc2ccc3[nH]c(NC(=O)c4ccccc4)nc3c2)cc1)Nc1cc(C(F)(F)F)ccc1F [GW709042A]    Yes
COc1cc(/C=N/Nc2ncnc3[nH]ncc23)ccc1O [GW578748X]    Yes
COc1cc(N2CCN(C(C)C)CC2)ccc1Nc1nc(Nc2ccc(F)cc2C(=O)NC[C@@H](O)CO)c2cc[nH]c2n1 [GSK1392956A]    No

###

Catalogue of Percent Control readings, one per entry.
- Test system: CSNK1D
- experimental context: Compound Concentration (nM):1000
property measured: Percent Control

COc1ccc2[nH]c3c4[nH]c5ccc(OC)cc5c4c4c(c3c2c1)C(=O)NC4=O [GW296115X]    94%
COc1cc2ncn(-c3cc(O[C@H](C)c4ccccc4Cl)c(C(N)=O)s3)c2cc1OC [GSK237701A]    100%
CN(C)c1cc2c(Nc3ccc4c(cnn4Cc4ccccc4)c3)ncnc2cn1 [GW282974X]    97%
COc1ccc2c(-c3ccnc(Nc4cccc(OC(F)(F)F)c4)n3)cnn2n1 [GW810372X]    100%
Cl.O=C(Nc1ccc(Oc2ccc3[nH]c(NC(=O)c4ccccc4)nc3c2)cc1)Nc1cc(C(F)(F)F)ccc1F [GW709042A]    87%
O=C1Nc2ccc(C(=O)c3ccco3)cc2C1=Cc1cc(Cl)c(O)c(Cl)c1 [GW406108X]    100%
CN(C)CCNC(=O)Nc1ccc(N(C)c2ccnc(Nc3ccc(CS(C)(=O)=O)cc3)n2)cc1.Cl [GW830900A]    93%
NS(=O)(=O)c1ccc(N/N=C2\C(=O)Nc3ccc(Cl)cc32)cc1 [GW280670X]    100%
COc1cc(C=NNc2ncnc3c2cnn3-c2ccccc2)ccc1O [GW513184X]    86%
COc1cc(C)c(N(C)C(=O)CN(C)C)cc1Nc1nc(Nc2cccc(F)c2C(N)=O)c2cc[nH]c2n1    23%
COc1cc(N2CCN(C(C)C)CC2)ccc1Nc1nc(Nc2ccc(F)cc2C(=O)NC[C@@H](O)CO)c2cc[nH]c2n1 [GSK1392956A]    31%
Cc1cc(O)cc(C)c1/C=C/c1cncc(C(N)=O)c1 [GW435821X]    100%
COc1cc(/C=N/Nc2ncnc3[nH]ncc23)ccc1O [GW578748X]    57%
O=C(Nc1n[nH]c2nc(-c3ccc(O)cc3)c(Br)cc12)C1CC1    100%
CC(C)COC(=O)c1ccc2c(c1)/C(=C/Nc1ccc(S(N)(=O)=O)cc1)C(=O)N2 [GW416981X]    100%
CC1=C(C(=O)Nc2ccc3[nH]ncc3c2)C(c2ccc(Cl)c(Cl)c2)CC(=O)N1 (centres unmarked) [GSK299115A]    100%
CCc1ccc(Oc2nccc(-c3c(-c4ccc(F)cc4)ncn3C3CCNCC3)n2)cc1    1.7%
